Item-by-item account of IC50
# study-target: mouse TRPM3α2 (mTRPM3) ion channel (Mus musculus, UniProt J9SQF3)
# Construct: expressed in transfected cells; host or cells: flip-in HEK293
# Sequence (J9SQF3 1-1709 isoform J9SQF3-12): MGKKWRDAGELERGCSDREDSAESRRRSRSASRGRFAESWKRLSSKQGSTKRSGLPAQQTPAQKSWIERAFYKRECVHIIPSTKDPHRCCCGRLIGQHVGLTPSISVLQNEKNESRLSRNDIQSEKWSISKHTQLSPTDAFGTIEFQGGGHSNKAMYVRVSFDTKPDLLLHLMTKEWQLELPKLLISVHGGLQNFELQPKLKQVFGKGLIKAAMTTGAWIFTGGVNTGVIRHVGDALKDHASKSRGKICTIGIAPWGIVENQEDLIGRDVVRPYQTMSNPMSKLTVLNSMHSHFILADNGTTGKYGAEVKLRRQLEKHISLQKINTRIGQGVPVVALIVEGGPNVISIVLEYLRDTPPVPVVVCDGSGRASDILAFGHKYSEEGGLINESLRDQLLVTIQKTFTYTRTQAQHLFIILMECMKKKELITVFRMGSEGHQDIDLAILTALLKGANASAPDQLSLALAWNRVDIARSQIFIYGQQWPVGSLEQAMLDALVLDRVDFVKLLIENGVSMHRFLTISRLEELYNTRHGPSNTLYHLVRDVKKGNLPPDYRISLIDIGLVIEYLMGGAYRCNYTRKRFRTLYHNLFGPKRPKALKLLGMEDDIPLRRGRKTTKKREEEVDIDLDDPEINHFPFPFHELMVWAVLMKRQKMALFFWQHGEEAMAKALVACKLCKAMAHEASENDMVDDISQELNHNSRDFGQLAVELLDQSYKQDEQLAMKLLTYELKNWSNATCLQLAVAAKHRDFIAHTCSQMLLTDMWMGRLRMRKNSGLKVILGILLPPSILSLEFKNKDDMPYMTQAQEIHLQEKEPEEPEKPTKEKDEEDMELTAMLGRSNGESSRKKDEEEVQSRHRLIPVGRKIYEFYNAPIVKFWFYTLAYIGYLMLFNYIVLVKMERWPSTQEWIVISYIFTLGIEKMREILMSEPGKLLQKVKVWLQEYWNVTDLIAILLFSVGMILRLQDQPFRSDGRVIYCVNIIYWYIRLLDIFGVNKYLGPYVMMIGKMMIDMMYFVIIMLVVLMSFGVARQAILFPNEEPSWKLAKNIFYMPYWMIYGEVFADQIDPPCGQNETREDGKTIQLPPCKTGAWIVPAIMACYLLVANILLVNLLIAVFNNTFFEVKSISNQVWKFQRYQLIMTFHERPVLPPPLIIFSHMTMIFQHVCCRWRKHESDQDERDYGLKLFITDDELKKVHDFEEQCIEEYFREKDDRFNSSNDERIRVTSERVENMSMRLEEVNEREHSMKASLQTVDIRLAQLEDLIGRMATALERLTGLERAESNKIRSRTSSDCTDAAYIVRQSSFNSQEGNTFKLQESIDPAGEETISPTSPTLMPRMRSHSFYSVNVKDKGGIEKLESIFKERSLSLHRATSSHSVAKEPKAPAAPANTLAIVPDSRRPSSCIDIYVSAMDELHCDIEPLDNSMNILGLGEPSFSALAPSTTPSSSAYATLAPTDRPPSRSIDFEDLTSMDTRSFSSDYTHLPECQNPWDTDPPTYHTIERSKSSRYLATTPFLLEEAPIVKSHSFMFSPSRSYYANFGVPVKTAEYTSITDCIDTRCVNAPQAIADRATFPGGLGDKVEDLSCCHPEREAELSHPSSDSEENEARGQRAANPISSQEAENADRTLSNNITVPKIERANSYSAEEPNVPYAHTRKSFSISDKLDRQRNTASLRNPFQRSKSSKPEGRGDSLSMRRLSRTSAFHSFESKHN
# test-summary: TRPM3 ion channel driven Ca2+ uptake, Fluo-4 AM assay, PS-stimulated (mTRPM3)
# Format: cell-based
# condition-summary: TRPM3 overexpressing flip-in HEK293 cells stimulated with Pregnenolone sulfate (PS) 50 μM, activity ranges A, B, C

Worked set:
{"columns": ["compound", "IC50"],
 "data": [
  ["Cc1oc2ccc(OCc3ccccc3F)cc2c1C(=O)NC1(C(N)=O)CCOC1 (single isomer, unassigned) [Cpd 323-En 1]", "< 1000 nM"],
  ["Cc1oc2ccc(OCc3ccccc3)cc2c1C(=O)NC1CCN(C(=O)OC(C)(C)C)CC1(F)F (stereo not shown) [Cpd 263]", "< 1000 nM"],
  ["Cc1noc(C)c1CCNC(=O)c1c(C)oc2ccc(OCc3ccccc3)cc12 [Cpd 178]", "1000 to 20000 nM"],
  ["Cc1oc2ccc(OCc3ccccc3F)cc2c1C(=O)N[C@H]1CCNC1 [Cpd 095]", "< 1000 nM"],
  ["Cc1oc2ccc(OCc3ccccc3)cc2c1C(=O)NC1CCCN(C(=O)OC(C)(C)C)C1 (stereo not shown) [Cpd 247]", "> 20000 nM"]
]}

Ask: Value wanted: IC50 (mouse TRPM3α2 (mTRPM3) ion channel (Mus musculus, UniProt J9SQF3)) of entry Cc1oc2ccc(OCc3ccccc3)cc2c1C(=O)NC1CCN(C)C(C)C1 (stereo not shown) [Cpd 155]
Reply: < 1000 nM

Ask: Value wanted: IC50 (mouse TRPM3α2 (mTRPM3) ion channel (Mus musculus, UniProt J9SQF3)) of entry COc1ccccc1COc1ccc2oc(C)c(C(=O)N[C@@H](CO)C(N)=O)c2c1 [Cpd 339]
Reply: < 1000 nM

====

Item-by-item account of pIC50
# study-target: mouse TRPM3α2 (mTRPM3) ion channel (Mus musculus, UniProt J9SQF3)
# Construct: expressed in transfected cells; host or cells: flip-in HEK293
# test-summary: TRPM3 ion channel driven Ca2+ uptake, Fluo-4 AM assay, PS-stimulated (mTRPM3)
# Format: cell-based
# condition-summary: TRPM3 overexpressing flip-in HEK293 cells stimulated with Pregnenolone sulfate (PS) 50 μM, activity ranges A, B, C
pIC50: −log10 of the molar value.

{"columns": ["compound", "study-target", "recorded-result"],
 "data": [
  ["Cc1oc2ccc(OCc3ccccc3)cc2c1C(N)=O", "mouse TRPM3α2 (mTRPM3) ion channel (Mus musculus, UniProt J9SQF3)", "> 6.00"],
  ["Cc1oc2ccc(OCc3ccccc3)c(C)c2c1C(=O)NC1CNCC1(F)F (single isomer, unassigned) [Cpd 299-En 1]", "mouse TRPM3α2 (mTRPM3) ion channel (Mus musculus, UniProt J9SQF3)", "> 6.00"],
  ["Cc1oc2ccc(OCc3ccccc3)cc2c1C(=O)NC1(CNC(=O)OC(C)(C)C)CCC1", "mouse TRPM3α2 (mTRPM3) ion channel (Mus musculus, UniProt J9SQF3)", "4.70 to 6.00"],
  ["Cc1oc2ccc(OC(C)c3ccccc3)cc2c1C(=O)NC1(CO)CCOCC1 (single isomer, unassigned) [Cpd 308-En 1]", "mouse TRPM3α2 (mTRPM3) ion channel (Mus musculus, UniProt J9SQF3)", "> 6.00"],
  ["Cc1oc2cc(C#N)c(OCc3ccccc3)cc2c1C(=O)NC1CNCC1(F)F (single isomer, unassigned) [Cpd 301-En 1]", "mouse TRPM3α2 (mTRPM3) ion channel (Mus musculus, UniProt J9SQF3)", "< 4.70"],
  ["Cc1oc2ccc(OCc3ccccc3)cc2c1C(=O)N[C@@H]1CCN(C(=O)OC(C)(C)C)[C@@H](C)C1 (racemic)", "mouse TRPM3α2 (mTRPM3) ion channel (Mus musculus, UniProt J9SQF3)", "> 6.00"]
]}

Ask: What value of pIC50 has been recorded for this entry: COCCCNC(=O)c1c(C)oc2ccc(OCc3ccccc3)cc12
Reply: 4.70 to 6.00

Ask: What value of pIC50 has been recorded for this entry: Cc1oc2ccc(OCc3ccccc3)cc2c1C(=O)N[C@H]1CN[C@H](C(N)=O)C1
Reply: > 6.00

Ask: What value of pIC50 has been recorded for this entry: Cc1oc2ccc(OC(CO)c3ccccc3)cc2c1C(=O)NC1(CO)CCOCC1 (single isomer, unassigned) [Cpd 317-En 1]
Reply: > 6.00

Ask: What value of pIC50 has been recorded for this entry: Cc1oc2ccc(OCc3ccccc3)cc2c1C(=O)NC1CN(C2COC2)C1
Reply: > 6.00

====

Item-by-item account of pIC50
# study-target: mouse TRPM3α2 (mTRPM3) ion channel (Mus musculus, UniProt J9SQF3)
# test-summary: TRPM3 ion channel driven Ca2+ uptake, Fluo-4 AM assay, PS-stimulated (mTRPM3)
# condition-summary: TRPM3 overexpressing flip-in HEK293 cells stimulated with Pregnenolone sulfate (PS) 50 μM, activity ranges A, B, C
pIC50: −log10 of the molar value.

{"columns": ["compound", "study-target", "pIC50"],
 "data": [
  ["Cc1oc2c(C)cc(OCc3ccccc3)cc2c1C(=O)NC1CNCC1(F)F (single isomer, unassigned) [Cpd 307-En 1]", "mouse TRPM3α2 (mTRPM3) ion channel (Mus musculus, UniProt J9SQF3)", "4.70 to 6.00"],
  ["Cc1oc2ccc(OCc3ccccc3F)cc2c1C(=O)NC1(CO)CCOCC1 [Cpd 197]", "mouse TRPM3α2 (mTRPM3) ion channel (Mus musculus, UniProt J9SQF3)", "> 6.00"],
  ["Cc1oc2ccc(COc3ccccc3F)cc2c1C(=O)NC(CO)C(N)=O (single isomer, unassigned) [Cpd 321-En 2]", "mouse TRPM3α2 (mTRPM3) ion channel (Mus musculus, UniProt J9SQF3)", "> 6.00"],
  ["Cc1oc2ccc(OCc3ccccc3)cc2c1C(=O)N[C@H]1CC[C@H](O)CC1 [Cpd 124]", "mouse TRPM3α2 (mTRPM3) ion channel (Mus musculus, UniProt J9SQF3)", "> 6.00"],
  ["Cc1oc2ccc(OCc3ccccc3)cc2c1C(=O)NC1COC1 [Cpd 043]", "mouse TRPM3α2 (mTRPM3) ion channel (Mus musculus, UniProt J9SQF3)", "> 6.00"],
  ["Cc1oc2ccc(OCc3c(F)cccc3F)cc2c1C(=O)NC1(CO)CCOCC1 [Cpd 218]", "mouse TRPM3α2 (mTRPM3) ion channel (Mus musculus, UniProt J9SQF3)", "> 6.00"],
  ["Cc1oc2ccc(OCc3ccccc3F)cc2c1C(=O)NC1(CO)CCNC1=O (single isomer, unassigned) [Cpd 334-En 1]", "mouse TRPM3α2 (mTRPM3) ion channel (Mus musculus, UniProt J9SQF3)", "> 6.00"],
  ["Cc1oc2ccc(OCc3ccccc3C#N)cc2c1C(=O)O [Cpd 010]", "mouse TRPM3α2 (mTRPM3) ion channel (Mus musculus, UniProt J9SQF3)", "4.70 to 6.00"],
  ["Cc1oc2ccc(OCc3ccccc3)cc2c1C(=O)NC[C@@H]1CCCO1 [Cpd 090]", "mouse TRPM3α2 (mTRPM3) ion channel (Mus musculus, UniProt J9SQF3)", "> 6.00"],
  ["Cc1oc2ccc(OCc3cccc(OC(F)(F)F)c3)cc2c1C(=O)N[C@H]1CCNC1 [Cpd 223]", "mouse TRPM3α2 (mTRPM3) ion channel (Mus musculus, UniProt J9SQF3)", "4.70 to 6.00"]
]}

Ask: What value of pIC50 has been recorded for this entry: Cc1oc2ccc(OCc3ccccc3)cc2c1C(=O)N[C@@H]1CN[C@@H](C(=O)O)C1 [Cpd 163]
Reply: 4.70 to 6.00

Ask: What value of pIC50 has been recorded for this entry: Cc1oc2ccc(OCc3ccccc3F)cc2c1C(=O)NC1(CO)CC1 [Cpd 325]
Reply: > 6.00

====

Item-by-item account of pIC50
# study-target: mouse TRPM3α2 (mTRPM3) ion channel (Mus musculus, UniProt J9SQF3)
# test-summary: TRPM3 ion channel driven Ca2+ uptake, Fluo-4 AM assay, PS-stimulated (mTRPM3)
# condition-summary: TRPM3 overexpressing flip-in HEK293 cells stimulated with Pregnenolone sulfate (PS) 50 μM, activity ranges A, B, C
pIC50: −log10 of the molar value.

Worked set:
{"columns": ["compound", "study-target", "pIC50"],
 "data": [
  ["Cc1oc2ccc(OCc3ccccc3)cc2c1C(=O)NCc1ccnn1C", "mouse TRPM3α2 (mTRPM3) ion channel (Mus musculus, UniProt J9SQF3)", "> 6.00"],
  ["Cc1oc2ccc(OCc3ccccc3)cc2c1C(=O)NCC1CCCO1 (centres unmarked)", "mouse TRPM3α2 (mTRPM3) ion channel (Mus musculus, UniProt J9SQF3)", "> 6.00"],
  ["Cc1oc2ccc(OCc3ccccc3)cc2c1C(=O)N[C@H]1C[C@H]2C(=O)NCC(=O)N2C1", "mouse TRPM3α2 (mTRPM3) ion channel (Mus musculus, UniProt J9SQF3)", "4.70 to 6.00"]
]}

Ask: What value of pIC50 has been recorded for this entry: Cc1oc2ccc(OCc3ccccc3)cc2c1C(=O)O
Reply: > 6.00

Ask: What value of pIC50 has been recorded for this entry: COc1ccccc1COc1ccc2oc(C)c(C(=O)O)c2c1
Reply: 4.70 to 6.00

Ask: What value of pIC50 has been recorded for this entry: Cc1oc2ccc(OCc3ccccc3)cc2c1C(=O)NC1CC2(CCNCC2)C1
Reply: > 6.00

Ask: What value of pIC50 has been recorded for this entry: Cc1oc2ccc(OCc3ccccc3)cc2c1C(=O)NC1CCN(C(=O)OC(C)(C)C)CC1
Reply: 4.70 to 6.00

Ask: What value of pIC50 has been recorded for this entry: Cc1oc2ccc(OCc3ccccc3)cc2c1C(=O)Nc1cccnc1
Reply: > 6.00

Ask: What value of pIC50 has been recorded for this entry: COCc1oc2ccc(OCc3cccc(F)c3)cc2c1C(=O)O
Reply: 4.70 to 6.00

Ask: What value of pIC50 has been recorded for this entry: Cc1oc2ccc(OCc3ccccc3)cc2c1C(=O)N[C@H]1CC2CC[C@H](C1)N2C(=O)OC(C)(C)C
Reply: > 6.00

Ask: What value of pIC50 has been recorded for this entry: CC(=O)N1CC[C@H](NC(=O)c2c(C)oc3ccc(OCc4ccccc4)cc23)C1
Reply: 4.70 to 6.00
